The reported measurements were obtained from ChEMBL document CHEMBL1150531.

Target: Acetylcholinesterase (Rattus norvegicus, UniProt P37136)
Sequence (P37136 whole entry): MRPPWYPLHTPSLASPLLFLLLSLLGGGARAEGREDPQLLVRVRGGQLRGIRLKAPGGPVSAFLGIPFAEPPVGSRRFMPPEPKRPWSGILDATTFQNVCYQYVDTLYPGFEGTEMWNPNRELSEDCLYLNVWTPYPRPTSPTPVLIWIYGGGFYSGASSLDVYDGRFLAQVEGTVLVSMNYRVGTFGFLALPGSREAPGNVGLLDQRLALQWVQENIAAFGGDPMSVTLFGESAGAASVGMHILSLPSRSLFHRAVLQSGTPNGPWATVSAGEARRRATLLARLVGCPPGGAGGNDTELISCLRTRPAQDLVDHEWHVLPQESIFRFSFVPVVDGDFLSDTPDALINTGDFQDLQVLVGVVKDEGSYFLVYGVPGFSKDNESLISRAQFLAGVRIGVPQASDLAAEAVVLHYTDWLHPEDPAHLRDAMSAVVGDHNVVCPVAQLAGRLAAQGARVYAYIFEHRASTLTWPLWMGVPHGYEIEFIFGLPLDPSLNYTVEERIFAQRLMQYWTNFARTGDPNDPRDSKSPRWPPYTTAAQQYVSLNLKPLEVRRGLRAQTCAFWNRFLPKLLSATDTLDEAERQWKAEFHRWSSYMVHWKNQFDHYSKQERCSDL
Readout label: log10 IC50 (log10 of the value in µM)
Parameter value (number): base-10 log of IC50 in µM.

Completed entries (count: 5):
Compound	log10 IC50
N=c1c2ccc(Cl)cc2nc2n1CCCCC2	1.56
c1ccc2c(c1)CN1CCCC1=N2	1.26
CCCCCCCNC(=O)Oc1ccc2c(c1)[C@]1(C)CCN(C)[C@@H]1N2C [EPTASTIGMINE]	-0.22
c1ccc2c(c1)CN1CCCCCC1=N2	1.18
c1ccc2c(c1)CN1CCCCCCC1=N2	2.00

### Prompt Please give measured log10 IC50 of the following entry: Clc1ccc2c(c1)CN1CCCCCC1=N2
### Response 0.97

### Prompt Please give measured log10 IC50 of the following entry: C/C=C1\[C@H]2C=C(C)C[C@]1(N)c1ccc(=O)[nH]c1C2 [HUPERZINE A]
### Response -1.03

### Prompt Please give measured log10 IC50 of the following entry: Clc1cccc2c1CN1CCCCCC1=N2
### Response 0.68
